target: LTD4 receptor (Cavia porcellus, UniProt Q2NNR5)
Sequence (Q2NNR5 whole entry): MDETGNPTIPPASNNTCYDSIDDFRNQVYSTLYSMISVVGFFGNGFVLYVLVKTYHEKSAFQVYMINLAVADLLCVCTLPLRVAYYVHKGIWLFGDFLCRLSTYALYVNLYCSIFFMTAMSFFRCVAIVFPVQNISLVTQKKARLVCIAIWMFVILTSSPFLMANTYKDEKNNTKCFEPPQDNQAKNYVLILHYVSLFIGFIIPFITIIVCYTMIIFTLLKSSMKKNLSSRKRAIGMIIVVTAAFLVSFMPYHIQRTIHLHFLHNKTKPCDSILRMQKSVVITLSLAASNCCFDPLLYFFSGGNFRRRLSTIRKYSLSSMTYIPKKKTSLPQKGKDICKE
pKi: −log10 of the molar value.
Use condition met when the recorded pKi is no lower than 9; use condition not met when it is lower.

| compound | qualitative_label |
| --- | --- |
| O=C(Nc1cccc2c(=O)cc(-c3nnn[nH]3)oc12)c1ccc2c(c1)CC(COCc1ccc(F)cc1)O2 (stereo not drawn) | condition met |
| O=C(O)c1cc(=O)c2cccc(OCc3ccc(OCCCCc4ccccc4)cc3)c2o1 | condition not met |
| O=c1cc(-c2nnn[nH]2)oc2c(/C=C/c3ccc(OCCCCc4ccccc4)cc3)cccc12 | condition met |
| O=C(O)c1cc(=O)c2cccc(/C=C/c3ccc(OCCCCc4ccccc4)cc3F)c2o1 | condition not met |

Say whether O=C(Nc1cc(F)cc2c(=O)cc(C(=O)O)oc12)c1ccc2c(c1)CC(CCCc1ccccc1)O2 (stereo not drawn) shows pKi of 9 or more.
condition not met

Say whether O=c1cc(-c2nnn[nH]2)oc2c(/C=C/c3ccc4c(c3)CC(COCc3ccc(F)cc3)O4)cccc12 (stereo not drawn) shows pKi of 9 or more.
condition met

Say whether O=C(Nc1cccc2c(=O)cc(C(=O)O)oc12)c1ccc2c(c1)CCC(COCc1ccccc1)O2 (stereo not drawn) shows pKi of 9 or more.
condition not met

Say whether O=C(O)c1cc(=O)c2cccc(NC(=O)c3ccc4c(c3Cl)CC(CCCc3ccccc3)O4)c2o1 (stereo not drawn) shows pKi of 9 or more.
condition not met

Say whether O=C(O)c1cc(=O)c2cccc(NC(=O)c3cc4c(cc3Cl)OC(CCCc3ccccc3)C4)c2o1 (stereo not drawn) shows pKi of 9 or more.
condition not met

Say whether O=C(Nc1cccc2c(=O)cc(C(=O)O)oc12)c1ccc2c(c1)CC(CSCc1ccccc1)O2 (stereo not drawn) shows pKi of 9 or more.
condition not met

Say whether O=c1cc(-c2nnn[nH]2)oc2c(/C=C/c3ccc(OCCCCc4ccc(F)cc4)cc3)cccc12 shows pKi of 9 or more.
condition met
